From: patent US8492376B2

target: human V1a receptor (Homo sapiens); construct: expressed in transfected cells; host or cells: HEK293 cells, transiently transfected; cell membranes; test: human V1a receptor binding studies (3H-Vasopressin, SPA beads); conditions: membranes from HEK293 cells transiently transfected with human V1a receptor, Ki calculated from IC50 by the Cheng-Prussoff equation, read-out: pKi (hV1a) (converted)
Binary call on Ki with cut-off 1 nM: strictly below means Satisfied, and equality or higher means Not satisfied.

* Fc1cccnc1[C@H]1CC[C@H](c2nnc3n2-c2ccc(Cl)cc2CN(CC(F)F)C3)CC1 [Example 34] | Satisfied
* COc1cccc([C@H]2CC[C@H](c3nnc4n3-c3ccc(Cl)cc3CN(C(=O)OC(C)(C)C)C4)CC2)n1 [Example 13] | Satisfied
* Cc1nccnc1[C@H]1CC[C@H](c2nnc3n2-c2ccc(Cl)cc2CNC3)CC1 [Example 76] | Not satisfied
* CN1Cc2cc(Cl)ccc2-n2c(nnc2[C@H]2CC[C@H](c3cccnc3F)CC2)C1 [Example 56] | Not satisfied
* CN1Cc2cc(Cl)ccc2-n2c(nnc2[C@H]2CC[C@H](c3cccnc3)CC2)C1 [Example 50] | Not satisfied
* Clc1ccc2c(c1)CNCc1nnc([C@H]3CC[C@H](c4ncccn4)CC3)n1-2 [Example 59] | Not satisfied
* CC(C)(C)OC(=O)N1Cc2cc(Cl)ccc2-n2c(nnc2[C@H]2CC[C@H](c3ncc(F)cc3F)CC2)C1 [Example 85] | Not satisfied

###

// reported Ki for each item listed
target: human V1a receptor (Homo sapiens); construct: expressed in transfected cells; host or cells: HEK293 cells, transiently transfected; cell membranes; experiment: human V1a receptor binding studies (3H-Vasopressin, SPA beads); conditions: membranes from HEK293 cells transiently transfected with human V1a receptor, Ki calculated from IC50 by the Cheng-Prussoff equation, read-out: pKi (hV1a) (converted)
Structures can show the parent of a compound that is named as a salt.
measuredParameter: Ki (nM)

- Clc1ccc2c(c1)CNCc1nnc([C@H]3CC[C@H](c4cnccn4)CC3)n1-2 [Example 70]: 15.1
- CC(C)(C)OC(=O)N1Cc2cc(Cl)ccc2-n2c(nnc2[C@H]2CC[C@H](c3cccnc3Cl)CC2)C1 [Example 51]: 2.19
- Fc1ccc([C@H]2CC[C@H](c3nnc4n3-c3ccc(Cl)cc3CNC4)CC2)nc1 [Example 23, dihydrochloride]: 7.24
- CC(C)(C)OC(=O)N1Cc2cc(Cl)ccc2-n2c(nnc2[C@H]2CC[C@H](c3ncccn3)CC2)C1 [Example 57]: 1.58

###

// reported Ki for each item listed
molecular target: human V1a receptor (Homo sapiens); construct: expressed in transfected cells; host or cells: HEK293 cells, transiently transfected; cell membranes; assay: human V1a receptor binding studies (3H-Vasopressin, SPA beads); settings: membranes from HEK293 cells transiently transfected with human V1a receptor, Ki calculated from IC50 by the Cheng-Prussoff equation, read-out: pKi (hV1a) (converted)
Counter-ions that a name gives are not always drawn.
measuredParameter: Ki (nM)

* Cc1cccc([C@H]2CC[C@H](c3nnc4n3-c3ccc(Cl)cc3CN(C(=O)OC(C)(C)C)C4)CC2)n1 [Example 4] | 0.2
* Cc1nccnc1[C@H]1CC[C@H](c2nnc3n2-c2ccc(Cl)cc2CN(C(=O)OC(C)(C)C)C3)CC1 [Example 75] | 1.2
* CN1Cc2cc(Cl)ccc2-n2c(nnc2[C@H]2CC[C@H](c3cnccn3)CC2)C1 [Example 71] | 1.7
* CC(C)c1cccc([C@H]2CC[C@H](c3nnc4n3-c3ccc(Cl)cc3CN(C)C4)CC2)n1 [Example 12] | 8.51
* COCCN1Cc2cc(Cl)ccc2-n2c(nnc2[C@H]2CC[C@H](c3ncccc3F)CC2)C1 [Example 35] | 0.977
* CN(C)S(=O)(=O)N1Cc2cc(Cl)ccc2-n2c(nnc2[C@H]2CC[C@H](c3ncccc3F)CC2)C1 [Example 41] | 0.603
* CC(C)(C)OC(=O)N1Cc2cc(Cl)ccc2-n2c(nnc2[C@H]2CC[C@H](c3cccnc3F)CC2)C1 [Example 54] | 1
* Fc1cnc([C@H]2CC[C@H](c3nnc4n3-c3ccc(Cl)cc3CNC4)CC2)c(F)c1 [Example 86] | 9.33
* Fc1cccnc1[C@H]1CC[C@H](c2nnc3n2-c2ccc(Cl)cc2CNC3)CC1 [Example 29] | 1.51
* CCc1cccc([C@H]2CC[C@H](c3nnc4n3-c3ccc(Cl)cc3CN(C)C4)CC2)n1 [Example 9] | 1.1
* CC(C)(C)OC(=O)N1Cc2cc(Cl)ccc2-n2c(nnc2[C@H]2CC[C@H](c3cccc(Cl)n3)CC2)C1 [Example 16] | 0.302
* CN(C)CC(=O)N1Cc2cc(Cl)ccc2-n2c(nnc2[C@H]2CC[C@H](c3ncccc3F)CC2)C1 [Example 39, formate] | 2.51
* CN1Cc2cc(Cl)ccc2-n2c(nnc2[C@H]2CC[C@H](c3cc(Cl)ccn3)CC2)C1 [Example 27] | 0.537
* CN1Cc2cc(Cl)ccc2-n2c(nnc2[C@H]2CC[C@H](c3ccc(F)cn3)CC2)C1 [Example 24] | 1
* CC(C)(C)OC(=O)N1Cc2cc(Cl)ccc2-n2c(nnc2[C@H]2CC[C@@H](c3ncccn3)CC2)C1 [Example 58] | 20.4

###

target: human V1a receptor (Homo sapiens, UniProt P37288); construct: expressed in transfected cells; host or cells: HEK293 cells, transiently transfected; cell membranes; test: human V1a receptor binding studies (3H-Vasopressin, SPA beads); conditions: membranes from HEK293 cells transiently transfected with human V1a receptor, Ki calculated from IC50 by the Cheng-Prussoff equation, read-out: pKi (hV1a) (converted)
Sequence (P37288 whole entry): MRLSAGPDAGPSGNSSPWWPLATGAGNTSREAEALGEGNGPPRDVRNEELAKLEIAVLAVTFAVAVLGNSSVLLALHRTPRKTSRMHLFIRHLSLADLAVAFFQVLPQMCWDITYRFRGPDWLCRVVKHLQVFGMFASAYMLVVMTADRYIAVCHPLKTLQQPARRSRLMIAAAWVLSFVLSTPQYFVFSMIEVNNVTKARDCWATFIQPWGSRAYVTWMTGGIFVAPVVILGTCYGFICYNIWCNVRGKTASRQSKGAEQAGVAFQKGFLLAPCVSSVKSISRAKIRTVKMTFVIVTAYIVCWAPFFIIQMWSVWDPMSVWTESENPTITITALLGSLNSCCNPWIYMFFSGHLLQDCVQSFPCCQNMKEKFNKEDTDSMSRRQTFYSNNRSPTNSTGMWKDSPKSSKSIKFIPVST
measuredParameter: Ki (nM)

* CN1Cc2cc(Cl)ccc2-n2c(nnc2[C@H]2CC[C@H](c3ncccc3F)CC2)C1 [Example 30] | 0.603
* Clc1ccc2c(c1)CNCc1nnc([C@H]3CC[C@H](c4ncccc4Cl)CC3)n1-2 [Example 83] | 7.24
* CN1Cc2cc(Cl)ccc2-n2c(nnc2[C@H]2CC[C@H](c3cccc(F)n3)CC2)C1 [Example 21] | 1.82
* CC(C)(C)OC(=O)N1Cc2cc(Cl)ccc2-n2c(nnc2[C@H]2CC[C@H](c3cccc(F)n3)CC2)C1 [Example 19] | 0.603
* CS(=O)(=O)N1Cc2cc(Cl)ccc2-n2c(nnc2[C@H]2CC[C@H](c3ncccc3F)CC2)C1 [Example 40] | 0.178
* CC(C)(C)OC(=O)N1Cc2cc(Cl)ccc2-n2c(nnc2[C@H]2CC[C@H](c3ccccn3)CC2)C1 [Example 1] | 1.91
* Fc1ccc2c(c1)CNCc1nnc([C@H]3CC[C@H](c4ncccc4F)CC3)n1-2 [Example 43] | 24.5
* Cc1nccc([C@H]2CC[C@H](c3nnc4n3-c3ccc(Cl)cc3CNC4)CC2)n1 [Example 67] | 1100

###

target: human V1a receptor (Homo sapiens, UniProt P37288); construct: expressed in transfected cells; host or cells: HEK293 cells, transiently transfected; cell membranes; test: human V1a receptor binding studies (3H-Vasopressin, SPA beads); conditions: membranes from HEK293 cells transiently transfected with human V1a receptor, Ki calculated from IC50 by the Cheng-Prussoff equation, read-out: pKi (hV1a) (converted)
Counter-ions that a name gives are not always drawn.
measuredParameter: Ki (nM)

• CN1Cc2cc(Cl)ccc2-n2c(nnc2[C@H]2CC[C@H](c3ccccn3)CC2)C1 [Example 3] = 0.794
• Cc1cnc(C)c([C@H]2CC[C@H](c3nnc4n3-c3ccc(Cl)cc3CNC4)CC2)n1 [Example 79, hydrochloride] = 6.76
• CC(C)(C)OC(=O)N1Cc2cc(Cl)ccc2-n2c(nnc2[C@H]2CC[C@H](c3cc(Cl)ccn3)CC2)C1 [Example 25] = 0.427
• CN1Cc2cc(F)ccc2-n2c(nnc2[C@H]2CC[C@H](c3ncccc3F)CC2)C1 [Example 44] = 8.91
• Fc1cccc([C@H]2CC[C@H](c3nnc4n3-c3ccc(Cl)cc3CNC4)CC2)n1 [Example 20] = 16.6
• CN1Cc2cc(Cl)ccc2-n2c(nnc2[C@H]2CC[C@H](c3ncccn3)CC2)C1 [Example 60] = 2.19
• CN1Cc2cc(Cl)ccc2-n2c(nnc2[C@H]2CC[C@H](c3ncccc3Cl)CC2)C1 [Example 84] = 0.501
• Clc1ccc2c(c1)CNCc1nnc([C@H]3CC[C@H](c4ccccn4)CC3)n1-2 [Example 2, dihydrochloride] = 10
• CC(C)N1Cc2cc(Cl)ccc2-n2c(nnc2[C@H]2CC[C@H](c3ncccc3F)CC2)C1 [Example 32] = 0.562
• CC(C)(C)OC(=O)N1Cc2cc(Cl)ccc2-n2c(nnc2[C@H]2CC[C@H](c3ccc(F)cn3)CC2)C1 [Example 22] = 0.302
• CN1Cc2cc(Cl)ccc2-n2c(nnc2[C@H]2CC[C@H](c3cccc(Cl)n3)CC2)C1 [Example 18] = 0.603
• Cc1cncc([C@H]2CC[C@H](c3nnc4n3-c3ccc(Cl)cc3CN(C)C4)CC2)n1 [Example 74] = 11.2
• Cc1cncc([C@H]2CC[C@H](c3nnc4n3-c3ccc(Cl)cc3CNC4)CC2)n1 [Example 73] = 55
• Cc1cc(C)nc([C@H]2CC[C@H](c3nnc4n3-c3ccc(Cl)cc3CN(C(=O)OC(C)(C)C)C4)CC2)n1 [Example 63] = 0.398
• CCN1Cc2cc(Cl)ccc2-n2c(nnc2[C@H]2CC[C@H](c3ncccc3F)CC2)C1 [Example 31] = 0.562
• Cc1cccc([C@H]2CC[C@H](c3nnc4n3-c3ccc(Cl)cc3CN(C)C4)CC2)n1 [Example 6] = 0.891
